Test system: C. neoformans H99
protocol details: Broth microdilution antimicrobial assay (MIC/MMC)
Assay type: cell-based, Cryptococcus neoformans
condition info: Cryptococcus neoformans, 37 °C, 48 h, read-out: MIC
Assignment: determine reported log10(MIC) for the given molecules.
Each number you see is log10 of MIC, and the unit inside the log is µg/mL.

Query block: Can you share its log10(MIC)? I mean this molecule: O=C(C=Cc1ccc(O)cc1)OCC1OC(Oc2c(-c3ccc(O)cc3)oc3cc(O)cc(O)c3c2=O)C(O)C(O)C1O (stereo not drawn) [Compound 6, trans-tiliroside]
Result block: 1.81

Query block: Next molecule: C=C(C)[C@@H]1CC[C@]2(C)CC[C@]3(C)[C@H](CC[C@@H]4[C@@]5(C)CC[C@H](O)C(C)(C)[C@@H]5CC[C@]43C)[C@@H]12
Result block: 2.41

Query block: Next molecule: O=c1oc2c(O)c(O)cc3c(=O)oc4c(O)c(O)cc1c4c23
Result block: 1.20

Query block: Next molecule: COC(=O)c1cc(O)c(O)c(O)c1-c1c(C(=O)OC)cc(O)c(O)c1O
Result block: 1.51

Query block: Next molecule: CC[C@H](CC[C@@H](C)[C@H]1CCC2C3CC=C4C[C@@H](O[C@@H]5O[C@H](CO)[C@@H](O)[C@H](O)[C@H]5O)CC[C@]4(C)C3CC[C@@]21C)C(C)C (stereo partly drawn) [Compound 4, sitosterol-3-O-β-D-glucopyranoside]
Result block: 2.11

Query block: Next molecule: C[C@H]1[C@H](C)CC[C@]2(C(=O)O)CC[C@]3(C)C(=CC[C@@H]4[C@@]5(C)CC[C@H](O)C(C)(C)[C@@H]5CC[C@]43C)[C@H]12
Result block: 2.11

Query block: Next molecule: COc1cc2c(=O)oc3c(OC)c(O)cc4c(=O)oc(c1O)c2c34
Result block: 1.51

Query block: Next molecule: O=c1cc(-c2ccc(O)cc2)oc2c([C@@H]3O[C@H](CO)[C@@H](O)[C@H](O)[C@H]3O)c(O)cc(O)c12
Result block: 2.11

###

Assignment: determine reported MMC/MIC for the given molecules.
Tested on: S. aureus MRSA3
protocol details: Broth microdilution antimicrobial assay (MIC/MMC)
Assay type: cell-based, Staphylococcus aureus
condition info: S. aureus MRSA3
Form rule: numeric answer, no unit written next to it.

Query block: Can you share its MMC/MIC? I mean this molecule: O=c1oc2c(O)c(O)cc3c(=O)oc4c(O)c(O)cc1c4c23
Result block: 2

Query block: Next molecule: COc1cc2c(=O)oc3c(OC)c(O)cc4c(=O)oc(c1O)c2c34
Result block: 2

Query block: Next molecule: COC(=O)c1cc(O)c(O)c(O)c1-c1c(C(=O)OC)cc(O)c(O)c1O
Result block: 2

Query block: Next molecule: O=C(C=Cc1ccc(O)cc1)OCC1OC(Oc2c(-c3ccc(O)cc3)oc3cc(O)cc(O)c3c2=O)C(O)C(O)C1O (stereo not drawn) [Compound 6, trans-tiliroside]
Result block: 2

Query block: Next molecule: O=c1cc(-c2ccc(O)cc2)oc2c([C@@H]3O[C@H](CO)[C@@H](O)[C@H](O)[C@H]3O)c(O)cc(O)c12
Result block: 2

Query block: Next molecule: O=C(O)c1cn(C2CC2)c2cc(N3CCNCC3)c(F)cc2c1=O [Ciprofloxacin, reference compound]
Result block: 1
